test system: NCI-H226 lung; experiment: NCI-60 one-dose screen, 48 h (100 = growth as untreated, 0 = no growth, -100 = all killed); conditions: 10 µM unless noted
About 83,000 compounds went through this panel and 20% of them were active in at least one assay; those are over-represented in the sample as a whole.
// values below are reported growth
Write down the numeric answer in % and omit the unit.

- C[C@H]1[C@H](C)CC[C@]2(C(=O)OCCOCCOCC[P+](c3ccccc3)(c3ccccc3)c3ccccc3)CC[C@]3(C)C(=CC[C@@H]4[C@@]5(C)CC[C@H](OC(=O)C(Cl)Cl)C(C)(C)[C@@H]5CC[C@]43C)[C@H]12: 15
- O=C(CN1N=C(c2ccc(F)cc2)CCC1=O)Nc1nc2ccccc2s1: 41.7
- C#Cc1ccccc1NC(=O)c1sc2nc3c(cc2c1N)CCCCC3: 88.3

May I ask what growth has been recorded for CC(C)(C)CC(C)(C)Cc1ccc(OCCOCC[N+](C)(C)Cc2ccccc2)cc1 ?
38.1

Quick one: growth of CCOC(=O)C(=Cc1c(-c2ccccc2)[nH]c2ccccc12)C(=O)OCC ?
60.1

# growth lookup, item COc1ccc(-c2nc(C#N)c(NCC(c3ccc(Cl)cc3)N3CCCCC3)o2)cc1 (centres undefined)
96

Record request: growth value, item Fc1ccc(N/N=C/c2ccc(-n3cccn3)cc2)cc1
92.3

So what does the record say about growth for O=C(Nc1cccc(-c2cccc(F)c2)c1)C1CCN(Cc2cccc3cccnc23)CC1 ?
71.5

GET /values?readout=growth&item= N#CCNc1ccc(C(=O)O)cc1
95.3
